# Subject of test: EGFR (Homo sapiens)
# Construct: The intracellular portion of EGFR started at nucleotide 2189 (corresponding to amino acid 667) and ended at the termination codon
# Sequence (P00533 669-1210 limits assumed): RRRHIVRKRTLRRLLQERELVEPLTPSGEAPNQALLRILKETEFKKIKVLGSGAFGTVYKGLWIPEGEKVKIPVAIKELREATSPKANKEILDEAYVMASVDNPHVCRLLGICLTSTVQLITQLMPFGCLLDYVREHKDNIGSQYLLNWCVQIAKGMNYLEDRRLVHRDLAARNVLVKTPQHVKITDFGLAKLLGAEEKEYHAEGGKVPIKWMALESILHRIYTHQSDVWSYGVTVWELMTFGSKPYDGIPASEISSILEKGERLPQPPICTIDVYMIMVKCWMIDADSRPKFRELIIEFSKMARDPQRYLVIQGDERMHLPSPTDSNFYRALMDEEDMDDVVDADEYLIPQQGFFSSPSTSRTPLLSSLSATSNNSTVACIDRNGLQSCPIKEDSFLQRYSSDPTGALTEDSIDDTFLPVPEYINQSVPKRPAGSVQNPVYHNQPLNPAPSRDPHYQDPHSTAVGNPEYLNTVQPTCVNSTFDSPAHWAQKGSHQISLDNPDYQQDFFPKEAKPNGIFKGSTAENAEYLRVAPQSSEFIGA
# Experimental protocol: EGFR Kinase Assay
# Run parameters: GST-EGFR, ATP 5 μM
Value type: log10(IC50) (log10 of the value in nM)
Recall that a logarithmic scale is used here: each number is log10 of IC50 in nM.

**Q:** Provide only the value of recorded log10(IC50) for "COc1cc(N2C(=O)Nc3c(C(=O)Nc4ccc(OC)c(OC)c4)sc4ncnc2c34)c(Cl)cc1Cl"
**A:** 3.76

**Q:** Note log10(IC50) for the compound shown: "CCOc1cc(NC(=O)c2sc3ncnc4c3c2NC(=O)N4c2ccc(Oc3ccccc3)cc2)ccc1CN1CCOCC1"
**A:** 1.20

**Q:** Please report the measured log10(IC50) for "COc1cc(NC(=O)c2sc3ncnc4c3c2NC(=O)N4c2cccc(Br)c2)ccc1OCCN1CCCCC1"
**A:** 2.02

**Q:** Input "O=C1Nc2c([N+](=O)[O-])sc3ncnc(c23)N1c1ccc(F)c(Cl)c1" , output reported log10(IC50).
**A:** 3.14

**Q:** Specify reported log10(IC50) for the compound shown: "O=C(Nc1ccc(CN2CCOCC2)c(O)c1)c1sc2ncnc3c2c1NC(=O)N3c1ccc(Oc2ccccc2)cc1"
**A:** 1.54

**Q:** Provide one value: measured log10(IC50) of "O=C(Nc1ccc(CN2CCCCC2)cc1)c1sc2ncnc3c2c1NC(=O)N3c1ccc2c(ccn2Cc2cccc(F)c2)c1"
**A:** 2.05

**Q:** State its log10(IC50): "CN1CCN(C(=O)c2sc3ncnc4c3c2NC(=O)N4c2ccc(Oc3ccccc3)cc2)CC1"
**A:** 2.89

====

Assign inhibition at 2 µM to each entry below.
# Subject of test: EGFR (Homo sapiens)
# Construct: The intracellular portion of EGFR started at nucleotide 2189 (corresponding to amino acid 667) and ended at the termination codon; made in house; host or cells: Sf9 insect cells (baculovirus)
# Experimental protocol: EGFR Kinase Assay
# Type: biochemical
# Run parameters: test concentration of 2 μM; compounds without an IC50; read-out: EGFR inhibition in percent
Output spec: scalar in %, unitless text.

**Q:** Please give the documented inhibition at 2 µM of "O=C(Nc1ccc(CN2CCOCC2)cc1)c1sc2ncnc3c2c1NC(=O)N3c1ccc(N2CCOCC2)cc1"
**A:** 11

**Q:** Give the reported inhibition at 2 µM for this compound. COc1cc(N2C(=O)Nc3c(C(=O)Nc4ccc(OCC5CCCCO5)c(OC)c4)sc4ncnc2c34)c(Cl)cc1Cl (stereo not drawn)
**A:** 14

**Q:** Look up and report measured inhibition at 2 µM for this entry: "CCOC(=O)C=Cc1ccc(NC(=O)c2sc3ncnc4c3c2NC(=O)N4c2ccc3nc(Cc4cccc(F)c4)[nH]c3c2)cc1"
**A:** 12

**Q:** For the compound "O=C(Nc1ccc(N2CCOCC2)cc1)c1sc2ncnc3c2c1NC(=O)N3c1ccc(N2CCOCC2)cc1" , give its reported inhibition at 2 µM.
**A:** 20

**Q:** Give recorded inhibition at 2 µM. "COc1cc(NC(=O)c2sc3ncnc4c3c2NC(=O)N4c2cc(Cl)ccc2OC)ccc1OCCN1CCCCC1"
**A:** 56

**Q:** Please give measured inhibition at 2 µM of the following entry: "COc1cc(N2C(=O)Nc3c(C(=O)O)sc4ncnc2c34)c(Cl)cc1Cl"
**A:** 11

**Q:** Item "O=C(Nc1ccc(N2C(=O)Nc3c(C(=O)Nc4ccc(CN5CCOCC5)cc4)sc4ncnc2c34)cc1)c1ccccc1" : provide inhibition at 2 µM
**A:** 8

**Q:** Quote inhibition at 2 µM reported for "CCOC(=O)c1sc2ncnc3c2c1NC(=O)N3c1ccc(OCc2cccs2)c(Cl)c1" please.
**A:** 5

**Q:** Identify inhibition at 2 µM associated with the compound "CN1CCN(Cc2ccc(NC(=O)c3sc4ncnc5c4c3NC(=O)N5c3cc(OCc4cccc(F)c4)c(Cl)cc3Cl)cc2)CC1"
**A:** 9

**Q:** Input "COc1cc(N2C(=O)Nc3c(C(=O)Nc4ccc(OC)c(OC)c4)sc4ncnc2c34)ccc1Br" , output reported inhibition at 2 µM.
**A:** 30

**Q:** Look up and report measured inhibition at 2 µM for this entry: "COc1ccc(NC(=O)c2sc3ncnc4c3c2NC(=O)N4c2cc(Cl)ccc2OC)cc1OC"
**A:** 51

**Q:** Supply measured inhibition at 2 µM of "COc1ccc(Cl)c(N2C(=O)Nc3c(C(=O)O)sc4ncnc2c34)c1" in your reply.
**A:** 5
